Reference for the values: ChEMBL document CHEMBL4387700

# testProtocol: Half life in Beagle dog at 0.1 mg/kg, iv by HPLC-MS/MS analysis
# Format: ADME, organism-based, Canis lupus familiaris
# protocolConditions: in vivo
attributeMeasured: half-life (min)
Answers are plain numbers, in min.

Task item: # half-life lookup, item `O=C(N[C@@H](C(=O)N1CCC[C@H]1c1ncc(-c2ccc(-c3ccc(-c4cnc([C@@H]5CCCN5C(=O)[C@H](NC(=O)C5CC5)c5ccccc5)s4)cc3)cc2)s1)c1ccccc1)C1CC1`
Reply: 1150

* * *

Answer each item with its documented CC50.
# testProtocol: Cytotoxicity against human HuH7 cells assessed as reduction in cell viability by MTS assay
# Type: cell-based, Huh-7

1) CN(C)CCC(=O)N[C@@H](C(=O)N1CCC[C@H]1c1ncc(-c2ccc(-c3ccc(-c4cnc([C@@H]5CCCN5C(=O)[C@H](NC(=O)CCN(C)C)c5ccccc5)s4)cc3)cc2)s1)c1ccccc1	> 50 µM

Could you report CC50 for every entry in the following list?
1. CN1CCN(CCC(=O)N[C@@H](C(=O)N2CCC[C@H]2c2ncc(-c3ccc(-c4ccc(-c5cnc([C@@H]6CCCN6C(=O)[C@H](NC(=O)CCN6CCN(C)CC6)c6ccccc6)s5)cc4)cc3)s2)c2ccccc2)CC1
2. CCC[C@@H](NC(=O)C1CC1)C(=O)N1CCC[C@H]1c1ncc(-c2ccc(-c3ccc(-c4cnc([C@@H]5CCCN5C(=O)[C@@H](CCC)NC(=O)C5CC5)s4)cc3)cc2)s1
3. COC(=O)N[C@H](C(=O)N1CCC[C@H]1c1ncc(-c2ccc(-c3ccc(-c4cnc([C@@H]5CCCN5C(=O)[C@H](NC(=O)OC)c5ccccc5)s4)cc3)cc2)s1)c1ccccc1
4. COC(=O)N[C@@H](C)C(=O)N1CCC[C@H]1c1ncc(-c2ccc(-c3ccc(-c4cnc([C@@H]5CCCN5C(=O)[C@H](C)NC(=O)OC)s4)cc3)cc2)s1

Reply:
1: > 50 µM; 2: > 50 µM; 3: > 50 µM; 4: > 50 µM

List the reported CC50 of each molecule below.
1. O=C(N[C@@H](C(=O)N1CCC[C@H]1c1ncc(-c2ccc(-c3ccc(-c4cnc([C@@H]5CCCN5C(=O)[C@H](NC(=O)C5CC5)C5CCCCC5)s4)cc3)cc2)s1)C1CCCCC1)C1CC1
2. COC(=O)N[C@@H](CC(C)C)C(=O)N1CCC[C@H]1c1ncc(-c2ccc(-c3ccc(-c4cnc([C@@H]5CCCN5C(=O)[C@H](CC(C)C)NC(=O)OC)s4)cc3)cc2)s1
3. COC(=O)N[C@H](C(=O)N1CCC[C@H]1c1ncc(-c2ccc(-c3ccc(-c4cnc([C@@H]5CCCN5C(=O)[C@@H](NC(=O)OC)C(C)(C)C)s4)cc3)cc2)s1)C(C)(C)C
4. O=C(CCn1cccc1)N[C@H](C(=O)N1CCC[C@H]1c1ncc(-c2ccc(-c3ccc(-c4cnc([C@@H]5CCCN5C(=O)[C@H](NC(=O)CCn5cccc5)c5ccccc5)s4)cc3)cc2)s1)c1ccccc1

Reply:
["> 50 µM", "> 50 µM", "> 50 µM", "> 50 µM"]

Items follow; give CC50 for each.
1. O=C(N[C@@H](C(=O)N1CCC[C@H]1c1ncc(-c2ccc(-c3ccc(-c4cnc([C@@H]5CCCN5C(=O)[C@H](NC(=O)N5CCOCC5)c5ccccc5)s4)cc3)cc2)s1)c1ccccc1)N1CCOCC1
2. O=C(N[C@H](C(=O)N1CCC[C@H]1c1ncc(-c2ccc(-c3ccc(-c4cnc([C@@H]5CCCN5C(=O)[C@H](NC(=O)N5CCCCC5)c5ccccc5)s4)cc3)cc2)s1)c1ccccc1)N1CCCCC1
3. CC[C@@H](NC(=O)C1CC1)C(=O)N1CCC[C@H]1c1ncc(-c2ccc(-c3ccc(-c4cnc([C@@H]5CCCN5C(=O)[C@@H](CC)NC(=O)C5CC5)s4)cc3)cc2)s1

Reply:
["> 50 µM", "> 50 µM", "> 50 µM"]
